B1: Zinc finger MYM-type protein 2, residues 463 to 506; numbered along this chain, Q9UBW7 (parent)
chain: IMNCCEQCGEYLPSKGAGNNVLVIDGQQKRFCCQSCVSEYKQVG

- Variants of: B1
- MEASUREMENT NOTES: abundance fitness (aPCA) (normalised: wild type 0, dead -1); higher = more abundant; growth selection in yeast, the domain comes from the species named
- CONDITION DETAILS: Homo sapiens
// bucketize abundance fitness: low (below -0.2), mid (-0.2 to below -0.06), high (-0.06 or more)

>>> qualitative_label("C5E")
"low"
>>> qualitative_label("L12A")
"low"
>>> qualitative_label("I24Q")
"mid"
>>> qualitative_label("S38K")
"high"
>>> qualitative_label("R30F")
"mid"
>>> qualitative_label("E6R")
"low"
>>> qualitative_label("M2P")
"low"
>>> qualitative_label("G26E")
"mid"
>>> qualitative_label("G9T")
"high"
>>> qualitative_label("E10P")
"low"
>>> qualitative_label("I24T")
"high"
>>> qualitative_label("R30L")
"high"
>>> qualitative_label("N3G")
"mid"
>>> qualitative_label("L12Q")
"low"
>>> qualitative_label("N19R")
"low"
>>> qualitative_label("Q28I")
"high"
>>> qualitative_label("C4L")
"mid"
>>> qualitative_label("C36Y")
"low"
>>> qualitative_label("I1P")
"low"
>>> qualitative_label("C32E")
"low"
>>> qualitative_label("V21A")
"mid"
>>> qualitative_label("G16R")
"low"
>>> qualitative_label("K29G")
"low"
>>> qualitative_label("Q34E")
"high"
>>> qualitative_label("E39M")
"high"
>>> qualitative_label("C32N")
"low"
>>> qualitative_label("I24A")
"high"
>>> qualitative_label("C8G")
"low"
>>> qualitative_label("K15D")
"high"
>>> qualitative_label("Y40M")
"mid"
>>> qualitative_label("N3P")
"low"
>>> qualitative_label("E39T")
"high"
>>> qualitative_label("N19C")
"mid"
>>> qualitative_label("K41P")
"high"
>>> qualitative_label("A17E")
"high"
>>> qualitative_label("S38M")
"high"
>>> qualitative_label("E39K")
"high"
>>> qualitative_label("L12M")
"low"
>>> qualitative_label("Q34C")
"mid"
>>> qualitative_label("Q28C")
"low"
>>> qualitative_label("V21S")
"mid"
>>> qualitative_label("A17T")
"low"
>>> qualitative_label("S35P")
"high"
>>> qualitative_label("G9A")
"mid"
>>> qualitative_label("Q28L")
"low"
